Origin of measurements: paper PMC10397247

- experimental_target: T1, 4H3969-AA
- T1 chain: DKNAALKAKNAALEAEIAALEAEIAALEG
- measurement_notes: two-hybrid library CCmax;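 also: natural log of median RNA to DNA barcode read ratio; higher means stronger binding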
- assay_conditions: mean of both orientations
experimental_readout: interaction score
Answer with the value's number alone.

Per the records, this binder ( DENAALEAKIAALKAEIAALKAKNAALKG [4H1360-AA] ) has interaction score equal to 0.163

Per the records, this binder ( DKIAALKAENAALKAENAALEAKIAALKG [4H2774-AA] ) has interaction score equal to -1.72

Per the records, this binder ( DKNAALKAKIAALKAKIAALEAENAALEG [4H3939-AA] ) has interaction score equal to -0.371

Per the records, this binder ( DKNAALEAKIAALKAENAALEAKIAALKG [4H3414-AA] ) has interaction score equal to -1.31
